TEST SYSTEM: T1, rat α-CGRP (1-37) (rat, C-terminal amide; N-terminal biotin when captured on the SA chip)
T1 construct: also called rat α (1-37); α-rat
T1 peptide: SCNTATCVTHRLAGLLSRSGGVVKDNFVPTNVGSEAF
ASSAY REMARKS: Biacore, 37°C, Fab over CGRP on SA chip
The following binders are shown together with reported koff values.
Your answer should be a plain number; it is taken to be in s⁻¹.

Exercise: Dear colleague, I am looking for the recorded koff of the following binder: G1 variant M46 Fab (Fab, V domains shown, Fab; constant domains as m1) VH: EVQLVESGGGLVQPGGSLRLSCAASGFTFSNYWISWVRQAPGKGLEWVAEIRSKSDNEATFYAEAVKGRFTISRDNAKNSLYLQMNSLRAEDTAVYYCTVYFDYGLAIQNYWGQGTLVTVSS VL: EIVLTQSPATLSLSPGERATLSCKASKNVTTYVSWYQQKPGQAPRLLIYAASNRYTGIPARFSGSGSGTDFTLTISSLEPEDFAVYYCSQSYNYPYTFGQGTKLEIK
Key: 0.00294

Exercise: Which koff value belongs to G1 variant M51 Fab (Fab, V domains shown, Fab; constant domains as m1; printed L561 read as L56I) VH: EVQLVESGGGLVQPGGSLRLSCAASGFTFSNYWISWVRQAPGKGLEWVAEIRSKSDGSATHYAEAVKGRFTISRDNAKNSLYLQMNSLRAEDTAVYYCTVYFDYGLAIQNYWGQGTLVTVSS VL: EIVLTQSPATLSLSPGERATLSCKASKNVTTYVSWYQQKPGQAPRLLIYGASNRYIGIPARFSGSGSGTDFTLTISSLEPEDFAVYYCSQSYNYPYTFGQGTKLEIK ?
Key: 0.00118

Exercise: Any idea what its koff is? The binder is G1 variant M22 Fab (Fab, V domains shown, Fab; constant domains as m1) VH: EVQLVESGGGLVQPGGSLRLSCAASGFTFSNYWISWVRQAPGKGLEWVAEIRSESDASATHYAEAVKGRFTISRDNAKNSLYLQMNSLRAEDTAVYYCTAYFDYGLAIQNYWGQGTLVTVSS VL: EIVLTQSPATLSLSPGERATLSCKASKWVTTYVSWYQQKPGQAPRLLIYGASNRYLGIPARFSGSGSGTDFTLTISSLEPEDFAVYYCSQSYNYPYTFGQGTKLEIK
Key: 0.0011
